ASSAY EXPLANATION: protein stability index of a GFP-peptide fusion (yeast GPS) (PSI 1-4); higher = more stable; sorted into four equal gates, so the index is relative within each strain
CONDITION SET: pdr5∆
Think of 3 as a floor: if protein stability index stands on it or above, it is YES; beneath it, NO.

The examples below pair each entry with its known result.
Input line: Check if protein stability index >= 3 (inclusive). Item: NTTTYKSRPDRPKPVSP [SNF5]
Output line: YES

Input line: Check if protein stability index >= 3 (inclusive). Item: RQPSLHKMSMMAHRVKV [RPO21]
Output line: NO

Input line: Check if protein stability index >= 3 (inclusive). Item: KSLVQYIELLPNADDIR [DIS3]
Output line: NO

Input line: Check if protein stability index >= 3 (inclusive). Item: IGGSDAAFEKRYRVDLL [RPO21]
Output line: YES

Input line: Check if protein stability index >= 3 (inclusive). Item: SVRTAVFSALKNLISRI [ECM29]
Output line: NO

Others:
Input line: Check if protein stability index >= 3 (inclusive). Item: NYDTCGGESAYFFQLQI [RPC11]
Output line: NO

Input line: Check if protein stability index >= 3 (inclusive). Item: YGFEDESAPITAEDSWA [RPB2]
Output line: YES

Input line: Check if protein stability index >= 3 (inclusive). Item: ESKQDGLSILFLTGQFA [YML103C/NUP188]
Output line: NO

Input line: Check if protein stability index >= 3 (inclusive). Item: GTTATGTGLFGQQTAQP [YGR119C/NUP57]
Output line: NO

Input line: Check if protein stability index >= 3 (inclusive). Item: HTDVSSSLEARYFFYLS [RPN3]
Output line: YES

Input line: Check if protein stability index >= 3 (inclusive). Item: PNVDLVTALEVLSLGRP [RGR1]
Output line: NO

Input line: Check if protein stability index >= 3 (inclusive). Item: YKEIRDVSRVAAVETLY [RPL20A]
Output line: NO

Input line: Check if protein stability index >= 3 (inclusive). Item: LVVIRFGRKNDRQCMIM [DIB1]
Output line: NO
